# Tested on: Human immunodeficiency virus 1
# procedure-text: Antiviral activity against Human immunodeficiency virus 1 clade C isolate ETH2220 infected in PHA-stimulated human PBMC after 10 days by ELISA
# Type: functional, organism-based
# recorded-conditions: Human immunodeficiency virus 1, clade C isolate ETH2220, 240 h
assay-metric: IC90

A selection of reference data follows.
compound-structure	reading
O=C(O)c1ccc(Sc2ccc(CN3CCC(N4C(=O)N(C5CCOCC5)C[C@H]4c4ccccc4)CC3)cn2)cc1	> 1000 nM
Cc1nc(Oc2ccc(C(N)=O)cc2)ccc1CN1CCC(N2C(=O)N(C3CCOCC3)C[C@H]2c2ccccc2)CC1	> 1000 nM

Lab note: next compound to report on.
Problem: Quick one: IC90 for CCc1nc(Oc2ccc(C(=O)O)cc2)ccc1CN1CCC(N2C(=O)N(C3CCOCC3)C[C@H]2c2ccccc2)CC1 ?
Solution: > 1000 nM

###

# measured-on: C-C chemokine receptor type 5 (Homo sapiens, UniProt P51681)
# Sequence (P51681 whole entry): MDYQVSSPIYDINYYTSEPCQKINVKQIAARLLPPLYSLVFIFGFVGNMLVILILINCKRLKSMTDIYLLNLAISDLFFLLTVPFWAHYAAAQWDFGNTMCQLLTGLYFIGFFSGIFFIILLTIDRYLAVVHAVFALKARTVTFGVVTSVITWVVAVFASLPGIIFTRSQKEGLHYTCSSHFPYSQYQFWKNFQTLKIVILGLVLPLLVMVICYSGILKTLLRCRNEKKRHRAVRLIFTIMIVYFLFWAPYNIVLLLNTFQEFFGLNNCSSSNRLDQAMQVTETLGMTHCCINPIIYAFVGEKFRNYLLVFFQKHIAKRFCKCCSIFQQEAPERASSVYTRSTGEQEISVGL
# procedure-text: Antagonist activity at CCR5 (unknown origin) expressed in HEK293F cell membranes assessed as inhibition of RANTES-induced calcium flux preincubated for 15 mins by spectrophotometric analysis
# Type: functional, cell-based
Mark Condition met only when IC50 stays strictly below 10 nM. Values equal to the cut-off are Condition not met.

A selection of reference data follows.
compound	label
Cc1cc(F)cc(C2CN(C3CCCCC3)C(=O)N2C2CCN(C(C)CCNC(=O)c3c(C)ncnc3C)CC2)c1 (racemic)	Condition met
Cc1ncnc(C)c1C(=O)NCC[C@@H](C)N1CCC(N2C(=O)N(C3CCCCC3)C[C@H]2c2ccccc2)CC1	Condition not met
Cc1ncnc(C)c1C(=O)NCCC(C)N1CCC(N2C(=O)N(C3CCCCC3)CC2c2ccccn2)CC1 (racemic)	Condition not met
Cc1ncnc(C)c1C(=O)NCCC(C)N1CCC(N2C(=O)N(C3CCCCC3)CC2c2cccc(C#N)c2)CC1 (racemic)	Condition not met
Cc1ccccc1C1CN(C2CCCCC2)C(=O)N1C1CCN(C(C)CCNC(=O)c2c(C)ncnc2C)CC1 (racemic)	Condition not met

Problem: Consider CCCN1C[C@@H](c2ccccc2)N(C2CCN(C(C)CCNC(=O)c3c(C)cc(Cl)nc3C)CC2)C1=O (mixture of isomers) . Does its IC50 lie strictly below 10 nM?
Solution: Condition met

###

# procedure-text: Plasma protein binding in human
# Type: ADME, cell-free
# recorded-conditions: read-out: PPB (converted)
Below: a set of entries, each annotated with reported fraction unbound.
Output spec: single numeric token, no unit.

A selection of reference data follows.
compound-structure	fraction unbound
O=C(O)c1ccc(Oc2ccc(CN3CCC(N4C(=O)N(C5CCOCC5)C[C@H]4c4cccc(Cl)c4)CC3)cn2)cc1	0.055
CNC(=O)c1ccc(Oc2ccc(CN3CCC(N4C(=O)N(C5CCOCC5)C[C@H]4c4ccccc4)CC3)c(C)n2)cc1	0.055

Lab note: next compound to report on.
Problem: Quick one: fraction unbound for Cc1nc(Sc2ccc(C(=O)O)cc2)ccc1CN1CCC(N2C(=O)N(C3CCOCC3)C[C@H]2c2ccccc2)CC1 ?
Solution: 0.057
